Biological target: T1, orthogonal hCD122 receptor (hoRb), hCD122 with H133D and Y134F (human, UniProt P14784 27-550)
T1 sequence: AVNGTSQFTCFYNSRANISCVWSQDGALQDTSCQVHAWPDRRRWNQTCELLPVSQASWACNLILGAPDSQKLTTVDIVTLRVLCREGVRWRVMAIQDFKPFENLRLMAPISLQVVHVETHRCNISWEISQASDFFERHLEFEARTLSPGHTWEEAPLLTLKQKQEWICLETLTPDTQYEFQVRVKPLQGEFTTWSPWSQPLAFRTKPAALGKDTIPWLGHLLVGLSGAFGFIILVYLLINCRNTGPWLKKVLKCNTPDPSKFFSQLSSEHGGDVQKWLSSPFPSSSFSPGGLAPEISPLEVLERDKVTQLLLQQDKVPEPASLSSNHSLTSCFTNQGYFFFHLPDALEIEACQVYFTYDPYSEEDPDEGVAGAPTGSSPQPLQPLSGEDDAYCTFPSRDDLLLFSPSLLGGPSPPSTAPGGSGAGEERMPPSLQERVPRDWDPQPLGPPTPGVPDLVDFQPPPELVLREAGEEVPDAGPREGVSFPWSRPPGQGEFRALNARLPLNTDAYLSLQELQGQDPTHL
Assay: cell-based or functional assay
Returns one of yes or no; yes when 3F8 Ortho Proliferation Signal 1:2 is >= 30000 cts/min.

// known answers, use as guide
binder	group
I86V, SQVLKA (ligand) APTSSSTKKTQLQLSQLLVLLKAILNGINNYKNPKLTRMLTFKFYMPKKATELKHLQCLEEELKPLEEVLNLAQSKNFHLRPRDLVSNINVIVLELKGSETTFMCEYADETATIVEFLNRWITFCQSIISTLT	yes
L18T, SQVLKA (ligand) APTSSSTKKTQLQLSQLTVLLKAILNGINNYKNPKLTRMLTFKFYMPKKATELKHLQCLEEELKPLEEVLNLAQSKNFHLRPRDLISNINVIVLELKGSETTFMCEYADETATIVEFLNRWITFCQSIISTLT	yes
T51I, SQVLKA (ligand) APTSSSTKKTQLQLSQLLVLLKAILNGINNYKNPKLTRMLTFKFYMPKKAIELKHLQCLEEELKPLEEVLNLAQSKNFHLRPRDLISNINVIVLELKGSETTFMCEYADETATIVEFLNRWITFCQSIISTLT	yes

Prompt: Does SQVLSA (ligand) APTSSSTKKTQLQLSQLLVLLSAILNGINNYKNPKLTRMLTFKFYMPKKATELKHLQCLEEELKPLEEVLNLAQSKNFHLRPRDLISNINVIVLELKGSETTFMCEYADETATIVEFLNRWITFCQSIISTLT have a reported 3F8 Ortho Proliferation Signal 1:2 of at least 30000 cts/min?
Response: no

Prompt: Does Q74H, SQVLKA (ligand) APTSSSTKKTQLQLSQLLVLLKAILNGINNYKNPKLTRMLTFKFYMPKKATELKHLQCLEEELKPLEEVLNLAHSKNFHLRPRDLISNINVIVLELKGSETTFMCEYADETATIVEFLNRWITFCQSIISTLT have a reported 3F8 Ortho Proliferation Signal 1:2 of at least 30000 cts/min?
Response: yes
